- Test Summary: Half life in PBS buffer (pH 5.6) at 37 degree C
- Format: ADME
Metric Name: half-life (h)
Respond numerically; units are h and should not be typed.

Query string: # half-life lookup, item `CC[C@@]1(OC(=O)CN)C(=O)OCc2c1cc1n(c2=O)Cc2cc3ccccc3nc2-1.O=C(O)C(F)(F)F`
Result string: 16

----------
- Test Summary: Half life in human plasma at 37 degree C
- Assay type: ADME, organism-based
Metric Name: half-life (min)
Respond numerically; units are min and should not be typed.

Query string: # half-life lookup, item `CC[C@@]1(OC(=O)CN)C(=O)OCc2c1cc1n(c2=O)Cc2cc3ccccc3nc2-1.O=C(O)C(F)(F)F`
Result string: 15
